Biological target: collagenase A (ColA) (Clostridium perfringens, UniProt P43153)
Sequence (P43153 87-1104 limits assumed): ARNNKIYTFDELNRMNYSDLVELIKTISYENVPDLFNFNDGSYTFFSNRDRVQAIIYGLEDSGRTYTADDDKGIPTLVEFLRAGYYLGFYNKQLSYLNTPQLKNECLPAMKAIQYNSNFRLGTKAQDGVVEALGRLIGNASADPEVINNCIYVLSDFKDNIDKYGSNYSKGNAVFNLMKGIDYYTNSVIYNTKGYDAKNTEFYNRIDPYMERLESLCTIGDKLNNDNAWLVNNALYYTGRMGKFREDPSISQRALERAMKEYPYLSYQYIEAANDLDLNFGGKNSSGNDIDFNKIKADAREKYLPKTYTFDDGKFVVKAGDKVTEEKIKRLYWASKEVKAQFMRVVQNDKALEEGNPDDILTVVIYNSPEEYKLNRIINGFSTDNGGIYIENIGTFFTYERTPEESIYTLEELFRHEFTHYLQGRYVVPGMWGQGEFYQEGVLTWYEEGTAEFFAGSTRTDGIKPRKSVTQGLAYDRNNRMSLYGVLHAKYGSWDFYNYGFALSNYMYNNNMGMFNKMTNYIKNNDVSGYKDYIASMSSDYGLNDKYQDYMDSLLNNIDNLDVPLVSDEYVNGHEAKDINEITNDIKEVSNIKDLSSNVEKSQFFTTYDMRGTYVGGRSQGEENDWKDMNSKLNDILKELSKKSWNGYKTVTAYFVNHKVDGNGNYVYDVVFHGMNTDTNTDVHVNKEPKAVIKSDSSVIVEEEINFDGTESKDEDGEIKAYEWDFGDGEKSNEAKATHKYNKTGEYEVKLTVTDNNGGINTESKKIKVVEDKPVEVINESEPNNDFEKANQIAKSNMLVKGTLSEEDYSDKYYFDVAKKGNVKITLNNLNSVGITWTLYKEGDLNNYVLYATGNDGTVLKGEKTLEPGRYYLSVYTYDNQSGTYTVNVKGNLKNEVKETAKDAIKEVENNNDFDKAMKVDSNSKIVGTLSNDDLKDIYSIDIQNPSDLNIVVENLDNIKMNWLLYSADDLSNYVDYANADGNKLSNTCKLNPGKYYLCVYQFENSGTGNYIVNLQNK
Assay: biochemical
Parameters: species or system C. perfringens
Details: read-out: Inhibition (%) on ColA
The reader will find reported inhibition at 5 µM values listed item by item below.
Please state the figure in %; there is no need to write the unit.

{"molecule": "O=C(O)c1cc(O)c2c(c1)C(=O)c1cccc(O)c1C2=O", "experimental target": "collagenase A (ColA) (Clostridium perfringens, UniProt P43153)", "endpoint name": "inhibition at 5 µM", "unit name": "%", "endpoint result": 22.9}
{"molecule": "COc1cc2c(cc1OC)-c1cc3ccc(OC)c(OC)c3c[n+]1CC2 [Palmatine chloride, palmatine chloride]", "experimental target": "collagenase A (ColA) (Clostridium perfringens, UniProt P43153)", "endpoint name": "inhibition at 5 µM", "unit name": "%", "endpoint result": 35.4}
{"molecule": "COc1ccc2[nH]c3c(c2c1)CCNC3C(=O)O (centres unmarked)", "experimental target": "collagenase A (ColA) (Clostridium perfringens, UniProt P43153)", "endpoint name": "inhibition at 5 µM", "unit name": "%", "endpoint result": -1.3}
{"molecule": "O=c1cc(-c2ccc(O)cc2)oc2cccc(O)c12 [4′,5-Dihydroxyflavone, 4′,5-dihydroxyflavone]", "experimental target": "collagenase A (ColA) (Clostridium perfringens, UniProt P43153)", "endpoint name": "inhibition at 5 µM", "unit name": "%", "endpoint result": 102}
{"molecule": "NC(=O)NCCC[C@H](N)C(=O)O", "experimental target": "collagenase A (ColA) (Clostridium perfringens, UniProt P43153)", "endpoint name": "inhibition at 5 µM", "unit name": "%", "endpoint result": -14.1}
{"molecule": "O=c1c(O)c(-c2cc(O)c(O)c(O)c2)oc2cc(O)cc(O)c12", "experimental target": "collagenase A (ColA) (Clostridium perfringens, UniProt P43153)", "endpoint name": "inhibition at 5 µM", "unit name": "%", "endpoint result": -4.5}

Asked: Returns the measured inhibition at 5 µM for the input molecule. Input: COc1cc(/C=C/C(=O)CC(=O)/C=C/c2ccc(O)c(OC)c2)ccc1O
Given back: 102

Asked: Returns the measured inhibition at 5 µM for the input molecule. Input: COc1ccc(-c2coc3cc(O)cc(O)c3c2=O)cc1
Given back: 23

* * *

Biological target: collagenase A (ColA) (Clostridium perfringens, UniProt P43153)
Assay: biochemical
Parameters: species or system C. perfringens
Conditions: read-out: Inhibition(%) on ColA
The reader will find reported inhibition at 100 µM values listed item by item below.
Please state the figure in %; there is no need to write the unit.

Solved cases (6 shown):
{"molecule": "O=c1c(O)c(-c2ccccc2)oc2ccccc12 [3-Hydroxyflavone, 3-hydroxyflavone]", "inhibition at 100 µM (%)": 27.6}
{"molecule": "O=C(O)[C@@H](S)[C@@H](S)C(=O)O [meso-2,3-dimercaptosuccinic acid, reference compound]", "inhibition at 100 µM (%)": 25.6}
{"molecule": "CC(=O)N[C@@H](CS)C(=O)O [acetylcysteine, reference compound]", "inhibition at 100 µM (%)": 3.4}
{"molecule": "Cc1cc(O)c2c(c1)C(=O)c1cccc(O)c1C2=O", "inhibition at 100 µM (%)": -11.1}
{"molecule": "CC(O)(P(=O)(O)O)P(=O)(O)O [etidronic acid, reference compound]", "inhibition at 100 µM (%)": 23}
{"molecule": "O=C(O)C1NCCc2c1[nH]c1ccccc21 (centres unmarked)", "inhibition at 100 µM (%)": 1.5}

Asked: Returns the measured inhibition at 100 µM for the input molecule. Input: O=C(/C=C/c1ccc(O)c(O)c1)O[C@@H]1C[C@](O)(C(=O)O)C[C@@H](O)[C@H]1O
Given back: 4.8

Asked: Returns the measured inhibition at 100 µM for the input molecule. Input: CC1CNc2c(cccc2S(=O)(=O)N[C@@H](CCCNC(=N)N)C(=O)N2CC[C@@H](C)C[C@@H]2C(=O)O)C1 (some centres unmarked) [argatroban, reference compound]
Given back: -12.3

Asked: Returns the measured inhibition at 100 µM for the input molecule. Input: Cc1ccc(S(=O)(=O)NC(N)=O)cc1
Given back: 19.6

Asked: Returns the measured inhibition at 100 µM for the input molecule. Input: COc1cc([C@@H]2c3cc4c(cc3[C@H](O)[C@H]3COC(=O)[C@H]23)OCO4)cc(OC)c1OC [podophyllotoxin, reference compound]
Given back: -9.7

Asked: Returns the measured inhibition at 100 µM for the input molecule. Input: Cc1cc(NC(=O)C2=C(O)c3ccccc3S(=O)(=O)N2C)no1 [isoxicam, reference compound]
Given back: -10.1

Asked: Returns the measured inhibition at 100 µM for the input molecule. Input: O=c1c(-c2ccc(O)cc2)coc2cc(O)cc(O)c12
Given back: -1.1

Asked: Returns the measured inhibition at 100 µM for the input molecule. Input: COc1ccc(-c2oc3ccccc3c(=O)c2O)cc1
Given back: 3.7

* * *

Target: collagenase A (ColA) (Clostridium perfringens)
Test: biochemical
Design: species or system C. perfringens
Conditions: read-out: Inhibition (%) on ColA
endpoint name: inhibition at 1 µM (%)
Please state the figure in %; there is no need to write the unit.

Solved cases (10 shown):
{"compound": "COc1cc(/C=C/C(=O)CC(=O)/C=C/c2ccc(O)c(OC)c2)ccc1O [Curcumin, curcumin]", "experimental target": "collagenase A (ColA) (Clostridium perfringens)", "unit name": "%", "inhibition at 1 µM": -10}
{"compound": "O=c1c(O)c(-c2ccccc2)oc2ccccc12 [3-Hydroxyflavone, 3-hydroxyflavone]", "experimental target": "collagenase A (ColA) (Clostridium perfringens)", "unit name": "%", "inhibition at 1 µM": -13.4}
{"compound": "O=c1c(O)c(-c2cc(O)c(O)c(O)c2)oc2cc(O)cc(O)c12 [Myricetin, myricetin]", "experimental target": "collagenase A (ColA) (Clostridium perfringens)", "unit name": "%", "inhibition at 1 µM": -15.4}
{"compound": "O=C1c2ccc(O)cc2OC(c2cc(O)c(O)c(O)c2)C1O (centres unmarked) [Dihydrorobinetin, dihydrorobinetin]", "experimental target": "collagenase A (ColA) (Clostridium perfringens)", "unit name": "%", "inhibition at 1 µM": -16.5}
{"compound": "COc1ccc2[nH]c3c(c2c1)CCNC3C(=O)O (centres unmarked)", "experimental target": "collagenase A (ColA) (Clostridium perfringens)", "unit name": "%", "inhibition at 1 µM": -19.9}
{"compound": "O=C(/C=C/c1ccccc1)c1ccccc1O [2′-Hydroxychalcone, 2′-hydroxychalcone]", "experimental target": "collagenase A (ColA) (Clostridium perfringens)", "unit name": "%", "inhibition at 1 µM": -12.1}
{"compound": "COc1cc2c(cc1OC)-c1cc3ccc(OC)c(OC)c3c[n+]1CC2 [Palmatine chloride, palmatine chloride]", "experimental target": "collagenase A (ColA) (Clostridium perfringens)", "unit name": "%", "inhibition at 1 µM": 15.5}
{"compound": "O=C1C=CC(=O)c2c(O)cccc21 [Juglone, juglone]", "experimental target": "collagenase A (ColA) (Clostridium perfringens)", "unit name": "%", "inhibition at 1 µM": 13.8}
{"compound": "O=C(O)c1cc(O)c2c(c1)C(=O)c1cccc(O)c1C2=O [Rhein, rhein]", "experimental target": "collagenase A (ColA) (Clostridium perfringens)", "unit name": "%", "inhibition at 1 µM": 2.6}
{"compound": "COc1ccc(-c2coc3cc(O)cc(O)c3c2=O)cc1 [Biochanin A, biochanin A]", "experimental target": "collagenase A (ColA) (Clostridium perfringens)", "unit name": "%", "inhibition at 1 µM": -24.8}

Asked: Returns the measured inhibition at 1 µM for the input compound. Input: O=C(/C=C/C=C/c1ccc2c(c1)OCO2)N1CCCCC1 [Piperine, piperine]
Given back: 84.5

* * *

The reader will find reported inhibition at 10 µM values listed item by item below.
Molecular target: collagenase A (ColA) (Clostridium perfringens, UniProt P43153)
Experiment: biochemical
Design: species or system C. perfringens
Conditions: read-out: Inhibition (%) on ColA
Please state the figure in %; there is no need to write the unit.

Solved cases (3 shown):
{"compound": "O=C1C=CC(=O)c2c(O)cccc21", "unit name": "%", "inhibition at 10 µM": 69.2}
{"compound": "O=C1c2ccc(O)cc2OC(c2cc(O)c(O)c(O)c2)C1O (stereo not drawn) [Dihydrorobinetin, dihydrorobinetin]", "unit name": "%", "inhibition at 10 µM": 105}
{"compound": "O=C(/C=C/c1ccccc1)c1ccccc1O [2′-Hydroxychalcone, 2′-hydroxychalcone]", "unit name": "%", "inhibition at 10 µM": 6.5}

Asked: Returns the measured inhibition at 10 µM for the input compound. Input: O=c1cc(-c2ccccc2)oc2cccc(O)c12
Given back: -0.7

Asked: Returns the measured inhibition at 10 µM for the input compound. Input: O=c1c(O)c(-c2cc(O)c(O)c(O)c2)oc2cc(O)cc(O)c12
Given back: -1

Asked: Returns the measured inhibition at 10 µM for the input compound. Input: NC(=O)NCCC[C@H](N)C(=O)O
Given back: 27.8
